Values compiled from patent US9695155B2.

Test system: ragweed
Assay: Test C postemergence
Format: in vivo, Ambrosia elatior
Settings: 31 g ai/ha, postemergence; visual rating, scale 0 to 100 (0 no effect, 100 complete control), 13 to 15 days
Kindly supply the reported Ragweed plant response rating values for the records listed here.
// return just the number, without any unit appended

Q) Look at this compound and give its reported Ragweed plant response rating. `N#Cc1cccc(Oc2ncc(Cl)cn2)c1-n1cc(I)cn1`
A) 25

Q) # repeat for `Fc1cccc(Oc2ncc(Cl)cn2)c1-n1cc(Br)cn1`
A) 55

Q) # repeat for `N#Cc1cnn(-c2c(Oc3ncc(Cl)cn3)cccc2C(F)F)c1`
A) 15

Q) # repeat for `FC(F)(F)c1cnn(-c2c(Cl)cccc2Oc2ncc(Cl)cn2)c1`
A) 10

Q) # repeat for `N#Cc1cccc(Oc2ncc(Cl)cn2)c1-n1cc(-n2ccc(C(F)(F)F)n2)cn1`
A) 55

Q) # repeat for `FC(F)c1cccc(Oc2ncc(Cl)cn2)c1-n1cc(Br)cn1`
A) 15

----------
System: barnyardgrass
Experiment: Test A postemergence
Type: in vivo, Echinochloa crus-galli
Details: 500 g ai/ha, 0 to 100 scale, 0 no effect, 100 complete control
Label True when Plant response rating, Barnyardgrass >= 40; otherwise False.

Q) Dear colleague, could you confirm whether `N#Cc1cccc(Oc2ncc(Cl)cn2)c1-n1cnc(Br)c1` has Plant response rating, Barnyardgrass at or above 40?
A) True

Q) # repeat for `N#Cc1cccc(Oc2ncc(I)cn2)c1-n1cc(Br)cn1`
A) True

Q) # repeat for `CC(C)(C)c1ccn(-c2ccccc2Oc2ncc(Cl)cn2)n1`
A) False

Q) # repeat for `Cc1ccc(Oc2ncc(Cl)cn2)c(-n2cc(Br)cn2)c1`
A) False

Q) # repeat for `FC(F)c1cnn(-c2ccccc2Oc2ncc(Br)cn2)c1`
A) True

----------
Kindly supply the reported Plant response rating, Foxtail, Giant values for the records listed here.
Tested on: giant foxtail
Test: Test A postemergence
Format: in vivo, Setaria faberii
Conditions: 31 g ai/ha, 0 to 100 scale, 0 no effect, 100 complete control

Q) Look at this compound and give its reported Plant response rating, Foxtail, Giant. `Clc1cnc(Oc2ccccc2-n2cccc2)nc1`
A) 0

Q) # repeat for `Fc1cccc(Oc2ncc(Cl)cn2)c1-n1cc(C2CCCC2)nn1`
A) 50

Q) # repeat for `CC(C)Oc1cnn(-c2c(Br)cccc2Oc2ncc(Cl)cn2)c1`
A) 10

Q) # repeat for `CC(C)Oc1cnn(-c2c(C#N)cccc2Oc2ncc(Br)cn2)c1`
A) 10

----------
System: fall panicum
Assay: Test E preemergence
Assay type: in vivo, Panicum dichotomiflorum
Settings: 31 g ai/ha, scale 0 to 100 (0 no effect, 100 complete control)
Measured Parameter: Panicum, Fall plant response rating
// return just the number, without any unit appended

Q) Look at this compound and give its reported Panicum, Fall plant response rating. `N#Cc1cccc(Oc2ncc(F)cn2)c1-n1cc(I)cn1`
A) 35

Q) # repeat for `FCc1cccc(Oc2ncc(Cl)cn2)c1-n1cc(Cl)cn1`
A) 0

Q) # repeat for `N#Cc1cccc(Oc2ncc(Br)cn2)c1-n1cc(C(F)(F)F)cn1`
A) 75

Q) # repeat for `FC(F)c1cccc(Oc2ncc(Cl)cn2)c1-n1cc(Br)cn1`
A) 80

----------
Kindly supply the reported Morningglory plant response rating values for the records listed here.
Test system: morningglory
Test: Test C preemergence
Type: in vivo, Ipomoea coccinea
Details: 16 g ai/ha, preemergence; scale 0 to 100 (0 no effect, 100 complete control)
// return just the number, without any unit appended

Q) What value of Morningglory plant response rating on morningglory does N#Cc1cccc(Oc2ncc(F)cn2)c1-n1cc(I)cn1 [Compound 86] have?
A) 10

Q) # repeat for FCc1cccc(Oc2ncc(F)cn2)c1-n1cc(C(F)(F)F)cn1 [Compound 118]
A) 40

Q) # repeat for Fc1cccc(Oc2ncc(Cl)cn2)c1-n1cc(OCC(F)(F)F)cn1 [Compound 270]
A) 0

Q) # repeat for N#Cc1cnn(-c2c(CF)cccc2Oc2ncc(F)cn2)c1 [Compound 151]
A) 0

Q) # repeat for CCOc1cnn(-c2ccccc2Oc2ncc(Cl)cn2)c1 [Compound 187]
A) 0

----------
Tested on: corn
Experiment: Test C preemergence
Assay type: in vivo, Zea mays
Details: 16 g ai/ha, preemergence; scale 0 to 100 (0 no effect, 100 complete control)
Kindly supply the reported Corn plant response rating values for the records listed here.

Q) Look at this compound and give its reported Corn plant response rating. FCc1cccc(Oc2ncc(Cl)cn2)c1-n1cc(Br)cn1 [Compound 83]
A) 0

Q) # repeat for Cc1cnc(Oc2cccc(C#N)c2-n2cc(I)cn2)nc1 [Compound 136]
A) 5

Q) # repeat for CCOc1cn(-c2c(Br)cccc2Oc2ncc(Cl)cn2)nn1 [Compound 84]
A) 0

Q) # repeat for FCc1cccc(Oc2ncc(Cl)cn2)c1-n1cc(Cl)cn1 [Compound 250]
A) 0

Q) # repeat for N#Cc1cn(-c2c(Br)cccc2Oc2ncc(Cl)cn2)nn1 [Compound 116]
A) 0

----------
Test system: corn
Assay: Test C postemergence
Type: in vivo, Zea mays
Details: 250 g ai/ha, postemergence
Kindly supply the reported Plant response rating (0 to 100), Corn values for the records listed here.

Q) What value of Plant response rating (0 to 100), Corn on corn does `N#Cc1cccc(Oc2ncc(Cl)cn2)c1-n1cc(I)cn1` have?
A) 20

Q) # repeat for `N#Cc1cccc(Oc2ncc(Cl)cn2)c1-n1cnc(Br)c1`
A) 20

Q) # repeat for `N#Cc1cccc(Oc2ncc(Cl)cn2)c1-n1cc(-n2ccc(C(F)(F)F)n2)cn1`
A) 20

Q) # repeat for `N#Cc1cccc(Oc2ncc(F)cn2)c1-n1cc(Cl)cn1`
A) 10

----------
Tested on: velvetleaf
Assay: Test C postemergence
Assay type: in vivo, Abutilon theophrasti
Settings: Postemergence, 62 g ai/ha; scale 0 to 100 (0 no effect, 100 complete control)
Measured Parameter: Plant response rating, Velvetleaf
// return just the number, without any unit appended

Q) Look at this compound and give its reported Plant response rating, Velvetleaf. `FCc1cn(-c2c(F)cccc2Oc2ncc(Cl)cn2)nn1`
A) 70

Q) # repeat for `N#Cc1cnn(-c2c(C#N)cccc2Oc2ncc(F)cn2)c1`
A) 75

Q) # repeat for `N#Cc1cccc(Oc2ncc(Cl)cn2)c1-n1cnc(Br)c1`
A) 35

Q) # repeat for `Clc1cnc(Oc2cccc(Br)c2-n2cc(Br)nn2)nc1`
A) 40

Q) # repeat for `CCOc1cn(-c2c(Br)cccc2Oc2ncc(Cl)cn2)nn1`
A) 70

----------
System: Heteranthera limosa
Assay: Test B flooded paddy test
Type: in vivo
Details: Flood, 250 g ai/ha; 0 to 100 scale where 0 is no effect and 100 is complete control
Measured Parameter: Plant response rating, Ducksalad
// return just the number, without any unit appended

Q) Look at this compound and give its reported Plant response rating, Ducksalad. Fc1cccc(Oc2ncc(Cl)cn2)c1-n1cc(C2CCCC2)nn1 [Compound 106]
A) 75

Q) # repeat for CCOc1cnn(-c2c(C#N)cccc2Oc2ncc(Cl)cn2)c1 [Compound 92]
A) 95

Q) # repeat for FC(F)(F)c1ccn(-c2ccccc2Oc2ncc(Br)cn2)n1 [Compound 1]
A) 0

Q) # repeat for Fc1cccc(Oc2ncc(Cl)cn2)c1-n1ccnn1 [Compound 159]
A) 0

Q) # repeat for COc1cnc(Oc2cccc(C#N)c2-n2cc(Br)cn2)nc1 [Compound 218]
A) 50

Q) # repeat for COc1cnn(-c2c(F)cccc2Oc2ncc(Cl)cn2)c1 [Compound 121]
A) 45

Q) # repeat for N#Cc1cnn(-c2c(C=O)cccc2Oc2ncc(Cl)cn2)c1 [Compound 237]
A) 0

Q) # repeat for Cc1cnc(Oc2cccc(C#N)c2-n2cc(I)cn2)nc1 [Compound 136]
A) 70

Q) # repeat for FC(F)(F)c1cnn(-c2ccccc2Oc2ncc(Cl)cn2)c1 [Compound 16]
A) 90

Q) # repeat for CC(C)Oc1cnn(-c2c(Br)cccc2Oc2ncc(Cl)cn2)c1 [Compound 148]
A) 40

----------
System: sandbur
Experiment: Test E preemergence
Format: in vivo, Cenchrus echinatus
Details: 125 g ai/ha, scale 0 to 100, 0 no effect, 100 complete control
Excerpt: […]
Kindly supply the reported Plant response rating, Sandbur values for the records listed here.
// return just the number, without any unit appended

Q) Look at this compound and give its reported Plant response rating, Sandbur. `FC(F)(F)c1cnn(-c2ccccc2Oc2ncc(Br)cn2)c1`
A) 5

Q) # repeat for `N#Cc1cccc(Oc2ncc(F)cn2)c1-n1cc(Cl)cn1`
A) 30

Q) # repeat for `N#Cc1cnn(-c2c(CF)cccc2Oc2ncc(F)cn2)c1`
A) 35

Q) # repeat for `Fc1cccc(Oc2ncc(Cl)cn2)c1-n1cc(I)cn1`
A) 15

Q) # repeat for `Clc1cnc(Oc2ccccc2-n2cc(Br)cn2)nc1`
A) 35

----------
System: windgrass
Assay: Test D postemergence
Format: in vivo, Apera spica-venti
Settings: Apera spica-venti, post-emergence, 125 g ai/ha, scale 0 to 100 (0 no effect, 100 complete control), read-out: Plant response rating, Windgrass
Kindly supply the reported pest or weed control at 125 g/ha values for the records listed here.
Numbers only; they are read as %.

Q) Look at this compound and give its reported pest or weed control at 125 g/ha. `Fc1cccc(Oc2ncc(Cl)cn2)c1-n1cc(Br)cn1`
A) 20

Q) # repeat for `FC(F)(F)c1cn(-c2ccccc2Oc2ncc(Cl)cn2)nn1`
A) 55

Q) # repeat for `FC(F)(F)c1cnn(-c2ccccc2Oc2ncc(Br)cn2)c1`
A) 10

Q) # repeat for `N#Cc1cccc(Oc2ncc(Cl)cn2)c1-n1cc(C(F)(F)F)cn1`
A) 55

Q) # repeat for `FC(F)(F)COc1cnn(-c2ccccc2Oc2ncc(Cl)cn2)c1`
A) 20
